System: HCoV-OC43
Design: species or system RD; HTS, protection from HCoV-OC43 induced cell death, luminescent cell viability (CellCounting-Lite 2.0), inhibition rate
ASSAY SETUP: 24 h post infection, 1 h compound pre-incubation; 10 µM; inhibitor
Structures can show the parent of a compound that is named as a salt. The whole screen tested about 3,300 compounds, of which about 60 (2%) showed an effect of 50% or more. Many of the other results were omitted from the sample, so strong results are more common in it than they were. Bridge positions count the residues as written; N and C are the ends. Square brackets hold non-standard residues; d marks the D form. Peptide text beside a SMILES is read from it. * marks the point of attachment. Ileψ(thiazoline)Cys = CC[C@H](C)[C@H](N)C1=N[C@H](C(=O)*)CS1; dOrn = NCCC[C@@H](N)C(=O)O
For each entry below, report its OC43 Inhibition rate value.
Give bare numbers, in %.

{"COMPOUND": "CC1(C)CC[C@]2(C(=O)O)CC[C@]3(C)C(=CC[C@@H]4[C@@]5(C)CC[C@H](O[C@@H]6O[C@H](C(=O)O)[C@@H](O)[C@H](O[C@@H]7OC[C@@H](O)[C@H](O)[C@H]7O[C@@H]7O[C@H](CO)[C@@H](O)[C@H](O)[C@H]7O)[C@H]6O)C(C)(C)[C@@H]5CC[C@]43C)[C@@H]2C1", "OC43 Inhibition rate, %": -0.1}
{"COMPOUND": "N[C@H](C(=O)O)[C@@H]1CC(Cl)=NO1 [Acivicin (hydrochloride)]", "OC43 Inhibition rate, %": 61.6}
{"COMPOUND": "O=C(O)C(O)c1ccc(O)c(O)c1 (stereo not drawn) [3,4-Dihydroxymandelic acid]", "OC43 Inhibition rate, %": -0.2}
{"COMPOUND": "O=C(c1ccccc1)c1ccccc1", "OC43 Inhibition rate, %": -0.1}
{"COMPOUND": "CC(=O)c1ccc2ccccc2c1", "OC43 Inhibition rate, %": -1.5}
{"COMPOUND": "C[C@@H]1CC[C@@]2(OC1)O[C@H]1C[C@H]3[C@@H]4CC=C5C[C@@H](O)C[C@@H](O[C@@H]6O[C@H](C)[C@H](O)[C@H](O[C@@H]7OC[C@@H](O)[C@H](O)[C@H]7O)[C@H]6O[C@@H]6O[C@H](CO)[C@@H](O)[C@H](O)[C@H]6O)[C@]5(C)[C@H]4CC[C@]3(C)[C@H]1[C@@H]2C", "OC43 Inhibition rate, %": 66.4}
{"COMPOUND": "O=c1cc(-c2ccc(O)cc2)oc2c([C@@H]3O[C@H](CO)[C@@H](O)[C@H](O)[C@H]3O)c(O)c([C@@H]3OC[C@@H](O)[C@H](O)[C@H]3O)c(O)c12", "OC43 Inhibition rate, %": -1.7}
{"COMPOUND": "COc1cc(O)c(C(=O)/C=C/c2ccccc2)c(OC)c1", "OC43 Inhibition rate, %": 58.3}
{"COMPOUND": "CC[C@H](C)[C@H](N)C1=N[C@H](C(=O)N[C@@H](CC(C)C)C(=O)N[C@H](CCC(=O)O)C(=O)N[C@H](C(=O)N[C@H]2CCCCNC(=O)[C@H](CC(N)=O)NC(=O)[C@@H](CC(=O)O)NC(=O)[C@H](Cc3cnc[nH]3)NC(=O)[C@@H](Cc3ccccc3)NC(=O)[C@H]([C@@H](C)CC)NC(=O)[C@@H](CCCN)NC2=O)[C@@H](C)CC)CS1 [Bacitracin] ({Ileψ(thiazoline)Cys}-L[dE]IK[dOrn]I[dF]H[dD]N; lactam 4-C)", "OC43 Inhibition rate, %": -0.3}
{"COMPOUND": "C[C@H]1CC[C@@]2(OC1)O[C@H]1C[C@H]3[C@@H]4CC=C5C[C@@H](O[C@@H]6O[C@H](CO)[C@@H](O)[C@H](O[C@@H]7OC[C@@H](O)[C@H](O)[C@H]7O)[C@H]6O[C@@H]6O[C@@H](C)[C@H](O)[C@@H](O)[C@H]6O)CC[C@]5(C)[C@H]4CC[C@]3(C)[C@H]1[C@@H]2C", "OC43 Inhibition rate, %": 66.1}

# map each compound to its OC43 Inhibition rate
1. CC(=O)N[C@H](C(=O)O)C(C)C
2. CCC/C=C\C=C\CCCCCCCCCO

-0.2
1.1
